The values you see were collected from patent US9505741B2.

# test system: HIF ODD-luc reporter (HIF PHD-controlled stability)
# assay text: ODD-luc reporter, concentration titration and kinetics of reporter activation (extended SAR)
# test settings: linear plot 1/(K0−v) vs inhibitor concentration; read-out: apparent inhibition constant from time course of reporter activation
assay endpoint: pKi
Schema: pKi number; meaning minus log10 of the concentration expressed in molar units.

Challenge: Any idea what pKi came out for CCOC(=O)c1ccc(O)c(O)c1 [DHB, Ethyl-3,4-dihydroxybenzoate] on HIF ODD-luc reporter (HIF PHD-controlled stability)?
Response given: 3.28

Challenge: Any idea what pKi came out for COC(=O)CNC(=O)C(=O)OC [DMOG, dimethyloxalylglycine] on HIF ODD-luc reporter (HIF PHD-controlled stability)?
Response given: 2.89

###

# Tested on: HIF ODD-luc reporter (HIF PHD-controlled stability)
# assay text: ODD-luc reporter, concentration titration and kinetics of reporter activation (extended SAR)
# Format: cell-based, human
# test settings: Homo sapiens; ODD-luc reporter
assay endpoint: pIC50
Schema: pIC50 number; meaning minus log10 of the concentration expressed in molar units.

Challenge: // returns reported pIC50 for input N[C@@H](Cc1ccc(O)c(O)c1)C(=O)O [L-Dopa, reference compound]
Response given: 4.82
